Would you mind telling me the reported TGI of each entry?
- Test system: NCI-H226 lung
- EXPERIMENTAL_DETAILS: NCI tumour cell line growth inhibition, 48 h
Where a SMILES comes first, the peptide text is derived from it. [ ]: non-standard residue; d: D form. The star is where a group is joined. Bn2Val = CC(C)[C@@H](C(=O)*)N(Cc1ccccc1)Cc1ccccc1; NH(4-F-benzyl) = Fc1ccc(CN*)cc1; NMeF = CN[CH](Cc1ccccc1)C(=O)O; NMeV = CN[CH](C(=O)O)C(C)C; Nle = CCCC[C@H](N)C(=O)O; dNMeA = CN[C@H](C)C(=O)O; Cbz = O=C(OCc1ccccc1)*; Boc = CC(C)(C)OC(=O)*

- COMPOUND: "N#Cc1nc(-c2ccccc2C(=O)O)oc1N"
  TGI: "> 100 µM"

Working through the 5 compounds below one at a time, give TGI for each.
1. COC(=O)c1ccc2[nH]c(O)c(C(=Nc3ccc(N(C)C(=O)CN4CCN(C)CC4)cc3)c3ccc(OC)cc3)c2c1
2. Cc1ccc(-c2c3c(nn2-c2ccc(S(=O)(=O)NC(=O)Nc4ccccc4)cc2)-c2ccccc2C3)cc1
3. O=C(/C=C/c1cccc2ccccc12)c1ccccc1
4. COc1cc(Nc2nc3c(N)cc(C(F)(F)F)cc3nc2-c2ccccc2)cc(OC)c1OC
5. C[C@]12CCC3[C@@H](CC[C@@H]4c5nonc5CC[C@]34C)C1CCC2=O (stereo partly drawn)

Result:
["18.9 µM", "56 µM", "27.9 µM", "> 88.5 µM", "62.7 µM"]

Working through the 4 compounds below one at a time, give TGI for each.
1. CC(C)C(NC(=O)OC(C)(C)C)C(=O)N(C)C(Cc1ccccc1)C(=O)N(C)C(C(=O)N(C)C(C(=O)O)C(C)C)C(C)C (stereo not drawn) (Boc-V[NMeF][NMeV][NMeV]-OH; configuration not given here)
2. CC1=CP(=O)(OC(C)C)CC(C)=C1Cl (stereo not drawn)
3. O=c1[nH]cnc2[nH]cc(CN3CCCCC3)c12
4. C/C(Cc1ccc(Cl)cc1)=C(\c1ccc(OCCN2CCCCCC2)cc1)c1ccc(OC(=O)c2ccccc2)cc1

Result:
1: > 100 µM; 2: > 100 µM; 3: > 100 µM; 4: 17.5 µM

Working through the 8 compounds below one at a time, give TGI for each.
1. COC(=O)Cc1c([C@H]2[C@H](CC(=O)OC)c3ccccc3N2C(=O)C(F)(F)F)[nH]c2ccccc12
2. COc1ccc(C(=O)Cc2ccc(Cl)cc2)cc1OC
3. CC(=O)OC1(C)C(=O)OC/C2=C/CN(C)CCC(OC(=O)C(O)(C(C)Cl)CC1C)C2=O (stereo not drawn)
4. CC1=C(/C=C/C(C)=C/C=C/C(C)=C/C=C/C=C(C)/C=C/C=C(C)/C=C/C=C(C)/C=C/C=C(\C)C(=O)O)C(C)(C)CCC1
5. CCCC[C@@H](C=O)NC(=O)[C@H](CC(C)C)NC(=O)[C@H](CC(C)C)NC(=O)OCc1ccccc1 (Cbz-Leu-Leu-[Nle]-aldehyde)
6. Nc1nonc1-c1nc2cnccc2n1C1CCCCC1
7. CC(=O)Nc1cccc(C#Cc2cncnc2Nc2ccc(OCc3cccc(F)c3)c(Cl)c2)n1
8. COc1ccc(C2C(C#N)=C(N)Oc3c2sc2c(C)cccc32)cc1 (stereo not drawn)

Result:
1. > 100 µM
2. > 100 µM
3. > 100 µM
4. > 100 µM
5. 0.343 µM
6. > 25 µM
7. > 25 µM
8. 15.8 µM

Working through the 8 compounds below one at a time, give TGI for each.
1. CC(C)[C@H](NC(=O)[C@H](C(C)C)N(Cc1ccccc1)Cc1ccccc1)C(=O)N(C)[C@H](C(=O)N1CCC[C@H]1C(=O)N(C)[C@H](C)C(=O)NCc1ccc(F)cc1)C(C)C (Bn2Val-V[NMeV]P[dNMeA]-{NH(4-F-benzyl)})
2. COCP1(=S)OC(C)CCN1C(C)C (stereo not drawn)
3. O=C1Nc2ccc(Br)cc2C1=Nc1ccc2c(c1)OCO2
4. COC(=O)C(=Cc1ccccc1[N+](=O)[O-])C(=O)OC
5. Cc1cn(C2CC(Br)C(COC(c3ccccc3)(c3ccccc3)c3ccccc3)O2)c(=O)[nH]c1=O (stereo not drawn)
6. NC(C(=O)O)c1cc(=O)[nH]o1 (stereo not drawn)
7. COc1ccc(CN=C2N/C(=C\c3ccccc3Cl)C(=O)N2C)cc1
8. CCOC(=O)c1ccc2c(c1)c1c(C)c3cnccc3c(C)c1n2C

Result:
6.23 µM
> 100 µM
60.8 µM
24.8 µM
34.2 µM
> 100 µM
> 100 µM
0.382 µM

Working through the 5 compounds below one at a time, give TGI for each.
1. CCOC(=O)Nc1nc2cc(OC)c(OC)c(OC)c2s1
2. C/C=C1/C[C@@H](C)[C@@](C)(O)C(=O)OCC2=CC[N+]3([O-])CC[C@@H](OC1=O)[C@@H]23 (stereo partly drawn)
3. Cc1ccc(C2(C)CC/C(=N/N=C3/CCC(C)(c4ccc(C)c(C)c4)c4cc(C)c(C)cc43)c3cc(C)c(C)cc32)cc1C (stereo not drawn)
4. Cc1ccc(-c2c(C#N)c(-c3ccccc3)c(C#N)c(=O)n2NS(=O)(=O)c2ccc(C)cc2)cc1
5. O=C(CC(=O)Nc1ccc(C(=O)O)cc1)Nc1ccc(C(=O)O)cc1

Result:
> 100 µM
> 100 µM
> 100 µM
> 100 µM
> 100 µM

Working through the 2 compounds below one at a time, give TGI for each.
1. COc1ccc(NCc2cc(OC)cc(OC)c2)cc1
2. Cc1cc2nc3c4cc(C=O)ccc4n(CCN(C)C)c3nc2cc1C

Result:
1. > 100 µM
2. 7.32 µM

Working through the 4 compounds below one at a time, give TGI for each.
1. O=C(N/N=C\c1c(O)ccc2ccccc12)c1ccncc1
2. Cn1cnc2[nH]c(=O)[nH]c(=S)c21
3. O=C1OC(c2cccc(C(F)(F)F)c2)(c2cccc(C(F)(F)F)c2)c2ccc3ccccc3c21
4. CCN(CC)S(=O)(=O)c1ccc2nc(NC(=O)OC)[nH]c2c1

Result:
1. 2.67 µM
2. > 100 µM
3. > 100 µM
4. > 100 µM

I looked up COc1ccc(/C(COc2ccc3c(c2)oc(=O)c2cc(OC)ccc23)=N/O)cc1 and its TGI for NCI-H226 lung was > 100 µM
